system: Mus musculus; experiment: Effect on liver weight in ovariectomized mouse at 0.110 mmol/kg, ip once daily for 4 weeks; format: functional
Where a SMILES comes first, the peptide text is derived from it. The star is where a group is joined. X1 = C[C@]12CC[C@@H]3c4ccc(OCC(=O)*)cc4CC[C@H]3[C@@H]1CCC2O
Documented Activity across a set of molecules
A number alone suffices; assume g.

C[C@]12CC[C@@H]3c4ccc(OCC(=O)N[C@@H](CCCNC(=N)N)C(=O)NCC(=O)N[C@@H](CC(=O)O)C(=O)N[C@@H](CO)C(=O)O)cc4CC[C@H]3[C@@H]1CCC2O (stereo partly drawn) (X1-RGDS-OH) | 1.377

Reported Activity of CC(C)[C@H](NC(=O)[C@H](CC(=O)O)NC(=O)CNC(=O)[C@@H](N)CCCNC(=N)N)C(=O)O (H-RGDV-OH) : 1.153

Sample CC(C)[C@H](NC(=O)[C@H](CC(=O)O)NC(=O)CNC(=O)[C@H](CCCNC(=N)N)NC(=O)COc1ccc2c(c1)CC[C@@H]1[C@@H]2CC[C@]2(C)C(O)CC[C@@H]12)C(=O)O (stereo partly drawn) (X1-RGDV-OH) ; Activity observed: 1.363
